EXPERIMENTAL SYSTEM: MT2 (Homo sapiens, UniProt P49286)
Sequence (P49286 whole entry): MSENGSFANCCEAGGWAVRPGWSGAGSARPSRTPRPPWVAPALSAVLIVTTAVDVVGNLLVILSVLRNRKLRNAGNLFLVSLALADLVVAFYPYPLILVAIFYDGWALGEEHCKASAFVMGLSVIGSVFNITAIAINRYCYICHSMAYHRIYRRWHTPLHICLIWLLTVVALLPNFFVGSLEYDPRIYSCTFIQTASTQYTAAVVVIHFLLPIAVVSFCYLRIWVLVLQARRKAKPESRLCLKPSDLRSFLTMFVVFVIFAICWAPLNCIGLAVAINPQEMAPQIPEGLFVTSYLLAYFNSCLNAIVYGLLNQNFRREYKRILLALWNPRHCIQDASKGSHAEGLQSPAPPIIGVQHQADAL
CONDITION INFO: Ki(MT1)/Ki(MT2)
METRIC NAME: Selectivity, ratio Ki(MT1)/Ki(MT2)

Completed entries (count: 3):
Qu. Supply Selectivity, ratio Ki(MT1)/Ki(MT2) value. Item: COc1ccc2c(=O)n(C)ccc2c1OCc1ccccc1 [15a]
Ans. 5.72

Qu. Return Selectivity, ratio Ki(MT1)/Ki(MT2) for the following molecule: COc1ccc2c(=O)n(C)ccc2c1OCc1ccc(C)cc1 [15d]
Ans. 0.27

Qu. Assign Selectivity, ratio Ki(MT1)/Ki(MT2) to the following record: COc1cc(COc2cc3ccn(C)c(=O)c3cc2OC)cc(OC)c1
Ans. 37.6

[P] COc1cc(COc2c(OC)ccc3c(=O)n(C)ccc23)cc(OC)c1 [15c]
[Q] COc1cccc(COc2cc3ccn(C)c(=O)c3cc2OC)c1
[R] COc1cccc(COc2c(OC)ccc3c(=O)n(C)ccc23)c1 [15b]
[S] COc1cc2c(=O)n(C)ccc2cc1OCc1ccc(C)cc1
Qu. Ranking field: Selectivity, ratio Ki(MT1)/Ki(MT2); order: falling. Answer by listing the labels in the requested order.
Ans. R, Q, P, S

====

EXPERIMENTAL SYSTEM: UniProt P48039
MEASUREMENT NOTES: Inhibition of forskolin-stimulated cAMP accumulation in MT1-CHO cells
Type: cell-based
Design: expressed in transfected cells
CONDITION INFO: MT1-CHO cells, 50 µM forskolin; calculated from mean pIC50; NSR = no significant response for up to 10 µM
Protocol: Both MT1 and MT2 are classified as Gi-coupled receptors with their activation leading to inhibition of intracellular cAMP production. […] All the responses were expressed as the percentage of that induced by forskolin alone (as 100%). 2×10^5 cells were seeded in each well of 12-well plates and grown for overnight. […] The radioactivity of labeled cAMP and total labeled nucleotide fractions separated by chromatography were estimated by scintillation counting. […]
METRIC NAME: MT1 IC50, inhibition of cAMP production

Qu. Provide one value: measured MT1 IC50, inhibition of cAMP production of COc1cc(COc2cc3c(=O)n(C)ccc3cc2OC)cc(OC)c1 [14c]
Ans. NSR

Qu. Return MT1 IC50, inhibition of cAMP production for the following compound: COc1cccc(COc2cc3c(=O)n(C)ccc3cc2OC)c1 [14b]
Ans. NSR

Qu. For the compound COc1cc(COc2c(OC)ccc3c(=O)n(C)ccc23)cc(OC)c1 [15c] , give its measured MT1 IC50, inhibition of cAMP production value.
Ans. NSR

Qu. For the compound COc1cccc(COc2c(OC)ccc3c(=O)n(C)ccc23)c1 [15b] , report MT1 IC50, inhibition of cAMP production.
Ans. NSR

====

EXPERIMENTAL SYSTEM: MT2 (Homo sapiens)
MEASUREMENT NOTES: biochemical
CONDITION INFO: read-out: MT2 %Resp±SEM (percentage of melatonin-mediated displacement of radioligand binding)
METRIC NAME: Emax (%)

Qu. Provide one value: measured Emax of COc1cc2c(=O)n(C)ccc2cc1OCc1cc(C)cc(C)c1
Ans. 86

Qu. Recall and state the measured Emax for COc1ccccc1COc1cc2ccn(C)c(=O)c2cc1OC .
Ans. 79

Qu. Answer with the recorded Emax of COc1cc(COc2c(OC)ccc3c(=O)n(C)ccc23)cc(OC)c1 [15c] only.
Ans. 94

Qu. For the molecule COc1cc(COc2cc3ccn(C)c(=O)c3cc2OC)cc(OC)c1 , give its measured Emax value.
Ans. 73

====

EXPERIMENTAL SYSTEM: MT2 (Homo sapiens)
MEASUREMENT NOTES: Intracellular Ca2+ mobilization (FLIPR) in MT2-CHO cells co-expressing 16z25
Format: cell-based
Parameters: expressed in transfected cells
CONDITION INFO: MT2-CHO cells, FLIPR
METRIC NAME: Ca2+ mobilization activity at MT2 (in words)

Qu. # return recorded Ca2+ mobilization activity at MT2 (in words) for input COc1cc2ccn(C)c(=O)c2cc1OCc1ccccc1 [14a]
Ans. basically inactive

Qu. # return recorded Ca2+ mobilization activity at MT2 (in words) for input COc1cc2ccn(C)c(=O)c2cc1OCc1ccc(C)cc1 [14d]
Ans. basically inactive

====

EXPERIMENTAL SYSTEM: MT2 (Homo sapiens)
MEASUREMENT NOTES: biochemical
CONDITION INFO: read-out: MT2 %Resp±SEM (percentage of melatonin-mediated displacement of radioligand binding)
METRIC NAME: Emax (%)

Observe how each entry below is paired with its result.
Qu. Fill in Emax for record COc1cc2ccn(C)c(=O)c2cc1OCc1ccc(C)cc1 [14d]
Ans. 73

Qu. // fetch Emax given entry COc1ccc2c(=O)n(C)ccc2c1OCc1ccc(C)cc1 [15d]
Ans. 74

Qu. Provide one value: measured Emax of COc1cccc(COc2cc3ccn(C)c(=O)c3cc2OC)c1
Ans. 92

Qu. Name the recorded Emax of the compound listed here: COc1cccc(COc2c(OC)ccc3c(=O)n(C)ccc23)c1 [15b]
Ans. 85

Qu. Please give measured Emax of the following entry: COc1cc2c(=O)n(C)ccc2cc1OCc1ccccc1
Ans. 78

Qu. Answer with the recorded Emax for the compound listed here: COc1cc(COc2cc3c(=O)n(C)ccc3cc2OC)cc(OC)c1 [14c]
Ans. 94

Qu. In one line, give reported Emax of the entry COc1ccc2c(=O)n(C)ccc2c1OCc1ccccc1 [15a] .
Ans. 85

Qu. Please give measured Emax of the following entry: COc1cc2c(=O)n(C)ccc2cc1OCc1ccc(C)cc1
Ans. 70

Qu. Read the entry COc1cc2ccn(C)c(=O)c2cc1OCc1ccccc1 [14a] and write its reported Emax.
Ans. 78

[1] COc1cccc(COc2cc3c(=O)n(C)ccc3cc2OC)c1 [14b]
[2] COc1ccc(COc2cc3ccn(C)c(=O)c3cc2OC)cc1
Qu. Pick one: 1 or 2 . Which has the bigger Emax number? # reply format: chosen label
Ans. 1

====

EXPERIMENTAL SYSTEM: MT1 (Homo sapiens, UniProt P48039)
Sequence (P48039 whole entry): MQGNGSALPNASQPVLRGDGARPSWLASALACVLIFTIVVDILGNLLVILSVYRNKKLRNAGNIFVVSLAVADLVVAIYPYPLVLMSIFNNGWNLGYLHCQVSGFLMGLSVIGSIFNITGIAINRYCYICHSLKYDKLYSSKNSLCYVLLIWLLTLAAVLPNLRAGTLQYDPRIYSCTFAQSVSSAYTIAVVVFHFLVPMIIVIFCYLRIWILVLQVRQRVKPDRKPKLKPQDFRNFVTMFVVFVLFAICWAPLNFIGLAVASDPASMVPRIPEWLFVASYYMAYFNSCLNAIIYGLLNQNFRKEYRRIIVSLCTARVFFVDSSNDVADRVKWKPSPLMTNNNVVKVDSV
MEASUREMENT NOTES: biochemical
CONDITION INFO: read-out: MT1 %Resp±SEM (percentage of melatonin-mediated displacement of radioligand binding)
METRIC NAME: Emax (%)

Qu. Entry COc1ccc2c(=O)n(C)ccc2c1OCc1ccccc1 [15a] needs its Emax filled in; supply it.
Ans. 84

[P] COc1ccc2c(=O)n(C)ccc2c1OCc1ccc(C)cc1 [15d]
[Q] COc1cccc(COc2c(OC)ccc3c(=O)n(C)ccc23)c1 [15b]
Qu. In the pair P and Q , the larger recorded Emax belongs to which? Please respond with the label that marks your chosen entry.
Ans. Q
(Q: 71%, P: 34%)

[A] COc1cc(COc2cc3ccn(C)c(=O)c3cc2OC)cc(OC)c1
[B] COc1cc(COc2c(OC)ccc3c(=O)n(C)ccc23)cc(OC)c1 [15c]
Qu. Sorting ascending by Emax, which comes first: A or B ? Indicate your choice by writing its label.
Ans. A

[a] COc1cccc(COc2cc3ccn(C)c(=O)c3cc2OC)c1
[b] COc1cc2c(=O)n(C)ccc2cc1OCc1ccc(C)cc1
Qu. When their Emax values are compared, which is larger, a or b ? Which one? Tell me its label.
Ans. a
(a: 90%, b: 38%)

====

Below, each entry is listed alongside its reported melting point.

Qu. // Input: COc1ccc(COc2cc3ccn(C)c(=O)c3cc2OC)cc1 [7e] . Output its melting point only.
Ans. 170 to 172 °C

Qu. Check the records and state melting point for COc1cc2ccn(C)c(=O)c2cc1OCc1ccc(C)cc1 [14d]
Ans. 150 to 152 °C

Qu. State its melting point: COc1cc(COc2c(OC)ccc3c(=O)n(C)ccc23)cc(OC)c1 [15c]
Ans. 85 to 86 °C

Qu. Could you please provide reported melting point for COc1ccccc1COc1cc2ccn(C)c(=O)c2cc1OC [7d] ? Thanks!
Ans. 150 to 152 °C

Qu. Provide measured melting point value, entry: COc1cccc(COc2cc3ccn(C)c(=O)c3cc2OC)c1 [7b]
Ans. 85 to 87 °C

Qu. Input COc1cc2c(=O)n(C)ccc2cc1OCc1ccccc1 [7a] , output reported melting point.
Ans. 102 to 104 °C

====

EXPERIMENTAL SYSTEM: UniProtKB P48039
CONDITION INFO: read-out: MT1 Ki; calculated from mean pIC50 (Cheng-Prusoff); 1 nM [3H]melatonin, intact CHO cells
METRIC NAME: pKi
// field semantics: pKi = negative decimal log of concentration (mol/L)

Qu. Specify pKi for COc1cccc(COc2c(OC)ccc3c(=O)n(C)ccc23)c1 [15b] and stop.
Ans. 5.53
